system: Aedes aegypti; conditions: day 1; formulation on plywood panels at 1.67 mg cm^−2; 2 h exposure, mortality 24 h after initial exposure
Listed molecules paired with reported % mortality on various days following treatment
MEASUREMENT NAME: % mortality on various days following treatment (a %)

MOLECULE	ENDPOINT RESULT
CC(=O)CC/C=C(\C)CCC=C(C)C	84.00
CC1(C)CCCC2=C1CC(C=O)CC2 (stereo not shown)	100.00
CC(C)=CCCC(C)CCO (stereo not shown)	94.00

====

system: Aedes aegypti; conditions: day 4; formulation on plywood panels at 1.67 mg cm^−2; 2 h exposure, mortality 24 h after initial exposure
% mortality on various days following treatment: recorded values
MEASUREMENT NAME: % mortality on various days following treatment (b %)

COMPOUND	UNITS	ENDPOINT RESULT
CC(C)=CCCC(C)CCO (stereo not shown)	b %	10.0
CC1(C)CCCC2=C1CC(C=O)CC2 (stereo not shown)	b %	13.0

====

test system: Aedes aegypti; details: day 1; formulation on military fabric at LC99-based concentration; 2 h exposure, mortality 24 h after initial exposure
Each record here notes measured % mortality on various days following treatment.
MEASUREMENT NAME: % mortality on various days following treatment (a %)

COMPOUND	ENDPOINT RESULT
CC(C)=CCCC(C)CCO (stereo not shown)	95.00
C=CCCCCCCCCO	95.00
CC1(C)CCCC2=C1CC(C=O)CC2 (stereo not shown)	100.00
CC(=O)CC/C=C(\C)CCC=C(C)C	91.25

====

Each entry below lists one item and its recorded % mortality on various days following treatment value.
system: Aedes aegypti; conditions: day 2; formulation on military fabric at LC99-based concentration; 2 h exposure, mortality 24 h after initial exposure
MEASUREMENT NAME: % mortality on various days following treatment (a %)

COMPOUND	ENDPOINT RESULT
CC1(C)CCCC2=C1CC(C=O)CC2 (stereo not shown)	97.50
CC(=O)CC/C=C(\C)CCC=C(C)C	83.00
C=CCCCCCCCCO	87.50
CC(C)=CCCC(C)CCO (stereo not shown)	77.50

====

system: Aedes aegypti; settings: day 3; formulation on plywood panels at 1.67 mg cm^−2; 2 h exposure, mortality 24 h after initial exposure
MEASUREMENT NAME: % mortality on various days following treatment

COMPOUND	ENDPOINT RESULT
CC(=O)CC/C=C(\C)CCC=C(C)C [Geranyl acetone, geranyl acetone]	8.0c %
CC(C)=CCCC(C)CCO (stereo not shown) [Citronellol, citronellol]	26.0b %
C=CCCCCCCCCO [Rosalva, rosalva]	11.0%
CC1(C)CCCC2=C1CC(C=O)CC2 (stereo not shown) [Cyclemone A]	28.0b %

====

Measured LC90, listed per entry.
test system: Susceptible Musca domestica; experiment: Contact bioassay of emulsified concentrate formulations on filter paper discs; settings: EC formulation on filter paper, 24 h constant exposure
MEASUREMENT NAME: LC90 (μg cm^−2)

COMPOUND	SUBJECT OF TEST	ENDPOINT RESULT
CC1(C)CCCC2=C1CC(C=O)CC2 (centres unmarked) [Cyclemone A]	Susceptible Musca domestica	759.00
C/C=C/C(=O)C1=C(C)CCCC1(C)C [Beta damascone, beta damascone]	Susceptible Musca domestica	618.12
CC(=O)CC/C=C(\C)CCC=C(C)C [Geranyl acetone, geranyl acetone]	Susceptible Musca domestica	1227.00
CC(C)=CCCC(C)CCO (centres unmarked) [Citronellol, citronellol]	Susceptible Musca domestica	580.00
C=CCCCCCCCCO [Rosalva, rosalva]	Susceptible Musca domestica	1054.32

Reference source for all entries: patent US8772348B2
